pKi: −log10 of the molar value.
Consider the following pKi values measured on human VR1 (Homo sapiens).
Sequence (Q8NER1 whole entry): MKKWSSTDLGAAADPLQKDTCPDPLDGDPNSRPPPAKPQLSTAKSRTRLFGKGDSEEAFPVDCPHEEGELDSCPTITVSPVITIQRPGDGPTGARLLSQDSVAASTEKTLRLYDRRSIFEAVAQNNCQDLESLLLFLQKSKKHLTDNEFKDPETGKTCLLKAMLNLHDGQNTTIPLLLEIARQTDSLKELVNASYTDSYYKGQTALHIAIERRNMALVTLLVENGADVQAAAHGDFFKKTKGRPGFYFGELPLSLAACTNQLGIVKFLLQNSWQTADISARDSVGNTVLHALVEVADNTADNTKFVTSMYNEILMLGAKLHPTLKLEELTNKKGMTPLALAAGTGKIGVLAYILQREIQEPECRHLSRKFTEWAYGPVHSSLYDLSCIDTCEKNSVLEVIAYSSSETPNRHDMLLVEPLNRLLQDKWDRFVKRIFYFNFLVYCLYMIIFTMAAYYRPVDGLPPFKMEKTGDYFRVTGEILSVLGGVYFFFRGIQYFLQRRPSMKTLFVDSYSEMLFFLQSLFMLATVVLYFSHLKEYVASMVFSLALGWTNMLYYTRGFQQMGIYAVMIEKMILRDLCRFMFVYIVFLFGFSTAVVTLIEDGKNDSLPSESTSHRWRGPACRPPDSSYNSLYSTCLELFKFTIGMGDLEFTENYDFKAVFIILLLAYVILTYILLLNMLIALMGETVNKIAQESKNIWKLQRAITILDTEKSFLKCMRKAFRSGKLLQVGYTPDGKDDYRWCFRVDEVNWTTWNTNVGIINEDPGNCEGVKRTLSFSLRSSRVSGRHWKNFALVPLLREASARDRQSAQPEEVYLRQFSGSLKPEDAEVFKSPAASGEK
reported-metric: pKi

1) CC(C)(C)c1ccc(CCC(=O)Nc2cnc(-n3ccnc3)c(C(F)(F)F)c2)cc1 [Cpd 202]; 6.67
2) CC(C)(C)c1ccc(/C=C/C(=O)Nc2cccc(-c3cccc(C(N)=O)c3)c2)cc1 [Cpd 33]; 6.77
3) O=C(CCc1ccc(C(F)(F)F)cc1)Nc1cnc(-c2ccncc2)c(C(F)(F)F)c1 [Cpd 255]; 6.48
4) CC(C)(C)c1ccc(CCC(=O)Nc2ccc(-c3ccncc3)c(CO)c2)cc1 [Cpd 171]; 6.53

---

- system-under-test: human VR1 (Homo sapiens)
- Construct: expressed in transfected cells; host or cells: HEK293
- assay-details: Human VR1 [3H]RTX binding assay
- experimental-context: inhibition of [3H]RTX binding at 1 μM; read-out: h Binding % I (1 μM)
Returns one of y or n; y when inhibition at 1 µM is >= 60%.

1. CC(C)(C)c1ccc(CCC(=O)Nc2ccc(-c3cccnc3)cc2)cc1; y
2. CC(C)(C)OC(=O)Nc1cccc(-c2ccc(NC(=O)CCc3ccc(C(C)(C)C)cc3)cc2)c1; y
3. CC(C)(C)c1ccc(CCC(=O)Nc2ccc(-c3cccc(NC(N)=O)c3)cc2)cc1; y
4. CC(C)(C)c1ccc(CCC(=O)Nc2ccc(-c3cccc(O)c3)c(F)c2)cc1; y
5. COc1cccc(-c2ccc(NC(=O)CCc3ccc(C(C)(C)C)cc3)cc2)c1; n
6. O=C(CCc1ccc(C(F)(F)F)cc1)Nc1ccc(-c2ccccc2O)cc1; n
7. O=C(CCc1ccc(C(F)(F)F)cc1)Nc1ccc(-c2cccc(O)c2)nc1; y
8. CC(C)(C)c1ccc(/C=C/C(=O)Nc2ccc(-c3cccc(C(N)=O)c3)cc2)cc1; n
9. CC(C)(C)c1ccc(CCC(=O)Nc2ccc(-c3cccnc3)nc2)cc1; y
10. CC(=O)Nc1cccc(-c2ccc(NC(=O)CCc3ccc(C(C)(C)C)cc3)cc2C)c1; y
11. O=C(CCc1ccc(C(F)(F)F)cc1)Nc1ccc(-c2ccc(CO)cc2)cc1; y
12. CC(C)(C)c1ccc(CCC(=O)Nc2cccc(-c3ncccn3)c2)cc1; n
13. CC(C)(C)c1ccc(CCC(=O)Nc2ccc(-c3cccc(O)c3)nc2)cc1; y
14. CC(C)(C)c1ccc(CCC(=O)Nc2ccccc2-c2ccncc2)cc1; n
15. Cc1cc(NC(=O)CCc2ccc(C(C)(C)C)cc2)ccc1-c1cccc(O)c1; y
16. CC(C)(C)c1ccc(CCC(=O)Nc2ccc(-c3cccc(O)c3)cc2)cc1; y
17. CC(C)(C)c1ccc(CCC(=O)Nc2ccc(-c3cccc([N+](=O)[O-])c3)cc2)cc1; y
